Reference source for all entries: patent US20080161327A1

system-name: A1 (h) (agonist site) adenosine receptor (Homo sapiens)
Sequence (P30542 whole entry): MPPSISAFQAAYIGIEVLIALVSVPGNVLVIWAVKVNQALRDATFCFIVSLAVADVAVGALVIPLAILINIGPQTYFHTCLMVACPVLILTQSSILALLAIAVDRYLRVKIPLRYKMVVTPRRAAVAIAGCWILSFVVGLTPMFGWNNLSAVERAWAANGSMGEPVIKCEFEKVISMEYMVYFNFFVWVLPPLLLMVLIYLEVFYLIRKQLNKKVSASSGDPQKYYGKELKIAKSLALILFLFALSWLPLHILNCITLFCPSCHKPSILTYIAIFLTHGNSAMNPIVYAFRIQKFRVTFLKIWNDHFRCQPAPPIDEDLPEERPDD
assay-info: Human recombinant adenosine receptor binding, A1 (h) (agonist site), [3H]CCPA
particulars: [3H]CCPA; Table 5
measurement-name: IC50 (nM)
One number for each entry, in nM.

CC(C)N(C)c1nc2c(NC3CC4CC3CC4OCCCS(=O)(=O)O)ncnc2n1C (single isomer, unassigned) [1 (−isomer)] | 4300

API: the following record is the query input.
Problem: Would you mind telling me what IC50 value was observed for CC(C)N(C)c1nc2c(NC3CC4CC3CC4OCCCS(=O)(=O)O)ncnc2n1C (single isomer, unassigned) [Compound 1 (+isomer)] ?
Solution: 210
